# Target or system: PI3Kδ (Homo sapiens, UniProt O00329)
# Sequence (O00329 whole entry): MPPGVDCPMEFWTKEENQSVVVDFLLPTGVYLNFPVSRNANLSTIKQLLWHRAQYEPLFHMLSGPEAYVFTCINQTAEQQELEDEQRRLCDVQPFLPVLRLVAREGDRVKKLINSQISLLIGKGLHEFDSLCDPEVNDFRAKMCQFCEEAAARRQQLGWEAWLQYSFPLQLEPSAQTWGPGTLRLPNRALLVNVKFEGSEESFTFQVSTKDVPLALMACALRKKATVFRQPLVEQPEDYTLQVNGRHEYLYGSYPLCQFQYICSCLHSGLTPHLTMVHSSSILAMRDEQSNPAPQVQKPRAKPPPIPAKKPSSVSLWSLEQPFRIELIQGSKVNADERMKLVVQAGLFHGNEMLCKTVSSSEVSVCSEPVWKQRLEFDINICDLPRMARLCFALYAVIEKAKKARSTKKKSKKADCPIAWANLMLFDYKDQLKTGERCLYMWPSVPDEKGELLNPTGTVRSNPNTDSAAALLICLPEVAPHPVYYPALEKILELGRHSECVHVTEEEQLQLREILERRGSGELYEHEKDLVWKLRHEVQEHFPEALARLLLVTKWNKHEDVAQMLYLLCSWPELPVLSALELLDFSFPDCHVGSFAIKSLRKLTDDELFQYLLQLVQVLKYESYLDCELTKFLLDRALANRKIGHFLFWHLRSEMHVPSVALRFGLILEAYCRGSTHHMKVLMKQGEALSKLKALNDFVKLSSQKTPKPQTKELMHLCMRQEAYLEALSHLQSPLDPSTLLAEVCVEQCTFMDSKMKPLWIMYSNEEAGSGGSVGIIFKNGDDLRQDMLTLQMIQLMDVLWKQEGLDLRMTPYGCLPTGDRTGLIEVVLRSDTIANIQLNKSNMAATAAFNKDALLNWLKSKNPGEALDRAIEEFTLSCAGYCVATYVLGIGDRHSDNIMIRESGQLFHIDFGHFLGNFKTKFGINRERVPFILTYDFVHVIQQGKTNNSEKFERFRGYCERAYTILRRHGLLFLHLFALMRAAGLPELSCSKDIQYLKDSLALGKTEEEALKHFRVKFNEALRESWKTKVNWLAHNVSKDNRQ
# Sequence (P27986 whole entry partner): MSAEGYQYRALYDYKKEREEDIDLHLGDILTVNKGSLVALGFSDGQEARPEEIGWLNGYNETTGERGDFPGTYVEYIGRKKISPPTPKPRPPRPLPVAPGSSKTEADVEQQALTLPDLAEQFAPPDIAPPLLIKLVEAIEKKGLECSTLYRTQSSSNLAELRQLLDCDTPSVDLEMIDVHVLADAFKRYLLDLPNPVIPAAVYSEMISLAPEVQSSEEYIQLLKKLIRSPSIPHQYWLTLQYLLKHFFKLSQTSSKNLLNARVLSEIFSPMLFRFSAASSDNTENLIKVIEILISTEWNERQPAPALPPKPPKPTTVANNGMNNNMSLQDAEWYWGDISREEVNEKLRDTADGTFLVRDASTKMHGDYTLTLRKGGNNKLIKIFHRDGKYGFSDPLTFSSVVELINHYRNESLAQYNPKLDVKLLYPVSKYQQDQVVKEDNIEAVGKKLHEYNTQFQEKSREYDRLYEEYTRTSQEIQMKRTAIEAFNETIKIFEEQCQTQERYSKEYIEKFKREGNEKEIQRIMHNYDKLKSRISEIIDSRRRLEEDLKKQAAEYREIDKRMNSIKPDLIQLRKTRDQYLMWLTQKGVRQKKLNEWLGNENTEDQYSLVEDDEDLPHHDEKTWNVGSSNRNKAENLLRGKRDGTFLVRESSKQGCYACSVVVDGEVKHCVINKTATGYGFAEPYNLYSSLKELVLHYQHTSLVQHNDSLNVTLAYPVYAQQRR
Test readout: pIC50
Answers are plain numbers, as −log10 of the molar value.

Recorded pIC50 (compound CC(Sc1ncnc2[nH]cnc12)c1nc2c(c(Br)nn2C)c(=O)n1-c1ccccc1 (stereo not shown) ): 5.22
